The measured values listed here are drawn from the Deep4Chem optical property database.

experiment: solvent given as SMILES; conditions: in O
Decision: absorption maximum compared against 400 nm; not below it gives True, below it gives False.

Exam item: Please indicate if the recorded absorption maximum for `CN1CCN(CCCN2c3ccccc3Sc3ccc(Cl)cc32)CC1` meets or exceeds 400 nm.
Marked response: False

Exam item: Please indicate if the recorded absorption maximum for `O=c1c(Nc2ccccc2)c([O-])c1=[NH+]c1ccccc1` meets or exceeds 400 nm.
Marked response: False

Exam item: Please indicate if the recorded absorption maximum for `CCCCN1C(=O)c2cccc3c([O-])c(/C=C/c4sc5ccccc5[n+]4CC)cc(c23)C1=O` meets or exceeds 400 nm.
Marked response: True

Exam item: Please indicate if the recorded absorption maximum for `Cc1ccc2oc(-c3cc4cc(C)ccc4oc3=O)cc2c1` meets or exceeds 400 nm.
Marked response: False

Exam item: Please indicate if the recorded absorption maximum for `CCN(CC)c1ccc2cc3ccc(=[N+](CC)CC)cc-3oc2c1` meets or exceeds 400 nm.
Marked response: True

Exam item: Please indicate if the recorded absorption maximum for Cc1cc(=O)oc2cc(/[NH+]=C/C=C3/C=C(C(=O)O)NC(C(=O)O)C3)ccc12 (stereo not drawn) meets or exceeds 400 nm.
Marked response: True

Exam item: Please indicate if the recorded absorption maximum for `[NH3+]c1cc([NH3+])cc(-c2[nH+]c3ccccc3s2)c1` meets or exceeds 400 nm.
Marked response: False

Exam item: Please indicate if the recorded absorption maximum for `COc1cc(-c2cc(N3CCCCC3)c(C#N)c3c2-c2cccc4cccc-3c24)cc(OC)c1OC` meets or exceeds 400 nm.
Marked response: True

Exam item: Please indicate if the recorded absorption maximum for [NH3+]C(Cc1ccc(O)cc1)C(=O)[O-] (stereo not drawn) meets or exceeds 400 nm.
Marked response: False

Exam item: Please indicate if the recorded absorption maximum for CC1(C)C2=C3C=C4C5=[N+](CCC4OC3CCN2c2ccc(CC(=O)NCCCCCCO)cc21)c1ccc(S(=O)(=O)[O-])cc1C5(C)C (stereo not drawn) meets or exceeds 400 nm.
Marked response: True

Exam item: Please indicate if the recorded absorption maximum for `O=Cc1ccc(-c2ccc(O)c(-c3nc4ccccc4s3)c2)s1` meets or exceeds 400 nm.
Marked response: False

Exam item: Please indicate if the recorded absorption maximum for `CN(C)c1c2ccccc2cc2ccccc12` meets or exceeds 400 nm.
Marked response: False

Exam item: Please indicate if the recorded absorption maximum for `CC[n+]1ccc2ccccc2c1/C=C/c1c([O-])ccc2ccc(=O)oc12` meets or exceeds 400 nm.
Marked response: True

Exam item: Please indicate if the recorded absorption maximum for `COc1ccc2ccc([O-])cc2c1` meets or exceeds 400 nm.
Marked response: False

Exam item: Please indicate if the recorded absorption maximum for `COc1ccc(C2=C3C=CC(=[N+](C)C)C=C3[Si](C)(C)c3cc(N(C)C)ccc32)c(OC)c1` meets or exceeds 400 nm.
Marked response: True

Exam item: Please indicate if the recorded absorption maximum for `COC(=O)c1nc2cnc(N)nc2n1Cc1ccccc1` meets or exceeds 400 nm.
Marked response: False

Exam item: Please indicate if the recorded absorption maximum for `Cn1c(/C=C/c2ccc(/C=C/c3nc4ccccc4[nH]3)cc2)[n+](C)c2ccccc21` meets or exceeds 400 nm.
Marked response: False

Exam item: Please indicate if the recorded absorption maximum for `N#Cc1cc2ccc(O)cc2oc1=O` meets or exceeds 400 nm.
Marked response: False

Exam item: Please indicate if the recorded absorption maximum for `Cc1oc(-c2ccccc2)nc1C(=O)O` meets or exceeds 400 nm.
Marked response: False

Exam item: Please indicate if the recorded absorption maximum for `CC/[NH+]=c1\cc2oc3cc(NCCO)c4ccccc4c3nc-2cc1C` meets or exceeds 400 nm.
Marked response: True

Exam item: Please indicate if the recorded absorption maximum for `COc1cc(/C=C/C(=O)O)ccc1O` meets or exceeds 400 nm.
Marked response: False

Exam item: Please indicate if the recorded absorption maximum for `CN(C)c1ccc(-c2nc3cnccc3[nH]2)cc1` meets or exceeds 400 nm.
Marked response: False

Exam item: Please indicate if the recorded absorption maximum for `Nc1ccc(-c2ccc(N)cc2)cc1` meets or exceeds 400 nm.
Marked response: False

Exam item: Please indicate if the recorded absorption maximum for `N#Cc1c(N2CCCC2)cc(-c2ccccc2)c2c1-c1cccc3cccc-2c13` meets or exceeds 400 nm.
Marked response: True

Exam item: Please indicate if the recorded absorption maximum for `CC[n+]1nc2cc3c(cc2c2cc(C)ccc21)N(C)CCC3` meets or exceeds 400 nm.
Marked response: True

Exam item: Please indicate if the recorded absorption maximum for `CC1(C)C(/C=C/C=C/c2cc3ccc(O)cc3oc2=O)=[N+](CCCS(=O)(=O)[O-])c2ccc(S(=O)(=O)O)cc21` meets or exceeds 400 nm.
Marked response: True

Exam item: Please indicate if the recorded absorption maximum for `N#Cc1cccc2[nH]ccc12` meets or exceeds 400 nm.
Marked response: False

Exam item: Please indicate if the recorded absorption maximum for `CC[n+]1nc2cc3c4c(c2c2cc(C)ccc21)CCCN4CCC3` meets or exceeds 400 nm.
Marked response: True

Exam item: Please indicate if the recorded absorption maximum for `N#Cc1ccc(-c2nc(-c3ccccc3)c3ccccn23)cc1` meets or exceeds 400 nm.
Marked response: True

Exam item: Please indicate if the recorded absorption maximum for `COc1ccccc1-c1nc(-c2ccccc2)c2ccccn12` meets or exceeds 400 nm.
Marked response: False

Exam item: Please indicate if the recorded absorption maximum for `c1ccc(-c2nc(-c3ccccc3)n3ccccc23)cc1` meets or exceeds 400 nm.
Marked response: False

Exam item: Please indicate if the recorded absorption maximum for `N#Cc1c(N2CCCCC2)cc(-c2ccc(O)cc2)c2c1-c1cccc3cccc-2c13` meets or exceeds 400 nm.
Marked response: True

Exam item: Please indicate if the recorded absorption maximum for `Nc1nc2ccccc2[n+]([O-])n1` meets or exceeds 400 nm.
Marked response: True

Exam item: Please indicate if the recorded absorption maximum for `CC1(C)C(/C=C/C=C/C=C/C=C2/N(c3ccc(S(=O)(=O)[O-])cc3)c3ccc(S(=O)(=O)[O-])cc3C2(C)C)=[N+](c2ccc(S(=O)(=O)[O-])cc2)c2ccc(S(=O)(=O)[O-])cc21` meets or exceeds 400 nm.
Marked response: True

Exam item: Please indicate if the recorded absorption maximum for `COc1ccc(/N=N/c2c(O)c3ccccc3n(C)c2=O)c(S(=O)(=O)O)c1` meets or exceeds 400 nm.
Marked response: True

Exam item: Please indicate if the recorded absorption maximum for `Oc1ccccc1-c1nc(-c2ccccc2)c2ccccn12` meets or exceeds 400 nm.
Marked response: False

Exam item: Please indicate if the recorded absorption maximum for `Cn1c(=O)c(/N=N/c2ccc(S(=O)(=O)O)c3ccccc23)c(O)c2ccccc21` meets or exceeds 400 nm.
Marked response: True

Exam item: Please indicate if the recorded absorption maximum for `O=C1Nc2ccccc2/C1=C/C(=O)c1ccc(O)cc1` meets or exceeds 400 nm.
Marked response: False

Exam item: Please indicate if the recorded absorption maximum for CC/[NH+]=c1\cc2oc3cc(NCCNC(=O)C(NC(=O)OC(C)(C)C)C(C)C)c4ccccc4c3nc-2cc1C (stereo not drawn) meets or exceeds 400 nm.
Marked response: True

Exam item: Please indicate if the recorded absorption maximum for `CN(C)c1ccc2c(-c3ccc(C(=O)[O-])cc3C(=O)[O-])c3ccc(=[N+](C)C)cc-3oc2c1` meets or exceeds 400 nm.
Marked response: True
